- Protocol description: qHTS assay to identify small molecule antagonists of the farnesoid-X-receptor (FXR) signaling pathway - cell viability counter screen (AID 743221); note: % is set by controls: 0 for no effect and ±100 for the full control effect; nearly all actives have a fitted effect of over 50% in size
- Run parameters: FXR-bla HEK293T viability, CellTiter-Glo luminescence, 16 h; series mostly up to 62.6 µM
Results filed as inconclusive are left out. Active and inactive are the calls of the source. Calls come from the whole dose curve; as a rule, active = well fitted cell-killing curve with a large enough effect in the repeat runs (not every such curve was filed as active); inconclusive = weak or mixed curves, or effect the other way; inactive = no such curve, though single readings can be large or run the other way.
Observable: activity change, negative = cytotoxicity

Sample answers from the record:
- Molecule: "O=C(OCc1ccccc1)C(=O)OCc1ccccc1"
  activity change, negative = cytotoxicity: "inactive"
- Molecule: "CCOCCOCCOCC"
  activity change, negative = cytotoxicity: "inactive"
- Molecule: "CC(C)C(=O)OCc1cccc(OC(=O)[C@@H]2N3C(=O)[C@@H](NC(=O)Cc4ccccc4)[C@H]3SC2(C)C)c1"
  activity change, negative = cytotoxicity: "inactive"
- Molecule: "COc1cc(N)ccc1C"
  activity change, negative = cytotoxicity: "inactive"
- Molecule: "COCCOC(=O)C1=C(C)NC(C)=C(C(=O)OC(C)C)C1c1cccc([N+](=O)[O-])c1 (centres undefined)"
  activity change, negative = cytotoxicity: "inactive"

So what's the measured activity change, negative = cytotoxicity for this one? CC1(C)S[C@@H]2[C@H](N=CN3CCCCCC3)C(=O)N2[C@H]1C(=O)O
inactive

Reported activity change, negative = cytotoxicity for Cc1cccc(C)c1NC(=O)c1ccccc1C(=O)O : what is it?
inactive

Requested field: activity change, negative = cytotoxicity. Item: O=C1c2ccccc2C(=O)N1CCl
inactive

Reported activity change, negative = cytotoxicity, molecule CC1=CCC(C(C)C)=CC1 : ____
inactive

Name the reported activity change, negative = cytotoxicity value associated with the molecule O=C(CCN1CCN(CCO)CC1)N1c2ccccc2Sc2ccc(C(F)(F)F)cc21
inactive

Item CCO[Si](CCCS)(OCC)OCC has what recorded activity change, negative = cytotoxicity?
inactive

###

- Protocol description: qHTS assay to identify small molecule agonists or antagonists of the thyroid stimulating hormone receptor (TSHR) signaling pathway - wild type cell line counter screen (AID 1259384); note: % is set by controls: 0 for no effect and ±100 for the full control effect
- Run parameters: HEK293 wild type, cAMP HTRF counter-screen, active compounds read high; series mostly up to 92.4 µM
Inconclusive results are not listed. Activity calls are given as the source filed them. Calls follow the shape of the full dose curve.
Observable: cAMP activity change

- Chemical string: "OCCN(CCO)c1cccc(Cl)c1"
  Endpoint result: "inactive"
- Chemical string: "C=C1CC/C=C(\\C)CC[C@@H]2[C@@H]1CC2(C)C"
  Endpoint result: "inactive"
- Chemical string: "CN1CCN(CC(=O)N2c3ccccc3C(=O)Nc3cccnc32)CC1"
  Endpoint result: "-2.81% [at 8.39 µM] (inactive)"
- Chemical string: "COc1ccc2c(c1)C(=O)N(CCc1ccc(S(=O)(=O)NC(=O)NC3CCCCC3)cc1)C(=O)C2(C)C"
  Endpoint result: "inactive"
- Chemical string: "COc1ccc(Br)c(C)c1"
  Endpoint result: "inactive"

In the following, a different compound is considered.
Fill blank: measured cAMP activity change of the compound CCN1CCc2nc(N)oc2CC1 is ____.
inactive

###

- Protocol description: qHTS assay to test for compound auto fluorescence at 460 nm (blue) in HEK293 cell free culture (AID 720681); note: % is set by controls: 0 for no effect and ±100 for the full control effect
- Run parameters: cell-free medium, autofluorescence 405/460 nm (blue); series mostly up to 91.3 µM
Calls of active or inactive are those of the source. Calls follow the shape of the dose curve; as a rule, active = well fitted curve in the direction sought with a large enough effect in the repeat runs; inconclusive = weak or mixed curves; inactive = flat fitted curve, though single readings scatter.
Observable: fluorescence, % of fluorescent control

Some solved cases for reference:
- Compound: "O=C(O)C(=O)Cc1ccccc1"
  Endpoint result: "inactive"
- Compound: "O=P(O)(O)OP(=O)(O)O"
  Endpoint result: "inactive"
- Compound: "O=S(=O)(O)CCN1CCN(CCO)CC1"
  Endpoint result: "inactive"
- Compound: "O=C(NCC(O)CO)c1c(I)c(C(=O)NCC(O)CO)c(I)c(N(CCO)C(=O)CO)c1I (configuration not stated)"
  Endpoint result: "-0.0567% [at 18.6 µM] (inactive)"
- Compound: "CC(C)N(c1ccccc1)C(C)C"
  Endpoint result: "inactive"

Consider now this further compound.
# get_value(readout='fluorescence, % of fluorescent control', item= CCOC(=O)c1ccc(OC(=O)CCCCCN=C(N)N)cc1 )
-0.0274% [at 18.6 µM] (inactive)

###

- Target or system: Cytochrome P450 2C19 (Homo sapiens)
- Protocol description: Cytochrome P450 Family 2 Subfamily C Member 19 (CYP2C19) small molecule antagonists: luciferase reporter qHTS assay (AID 1671197); note: nearly all actives have a fitted effect of over 65% in size
- Run parameters: P450-Glo CYP2C19 enzyme, luciferin luminescence, 1 h; series mostly up to 115 µM
Inconclusive results are not listed. The source made the active and inactive calls. Calls follow the shape of the dose curve; as a rule, active = well fitted inhibition curve with a large enough effect in the repeat runs; inconclusive = weak or mixed curves; inactive = no such curve, though single readings can be large or run the other way.
Could you please pick one outcome from this set? y (active), n (inactive)

Outcome logged for NNc1nnc(NN)c2ccccc12 in this assay:
n

Outcome logged for CN(C)C(=O)CNC(=O)Cc1ccccc1 in this assay:
n

Could you please tell me the result logged for CCOCCOCCOCC in this assay?
n

Record lookup: outcome of this test for Cc1ccsc1/C=C/C1=NCCCN1C ?
n

Kindly provide the recorded test outcome for the following compound: CC(N)C(=O)OC(C)(C)Cc1ccc(Cl)cc1 (centres undefined)
y

Can you look up the reported call for N[C@@H](CCC(=O)Nc1ccc([N+](=O)[O-])cc1)C(=O)O for me?
n

Fill in: this test's call for CC1=CCC(C(C)C)=CC1 is ___
n

Tell me the assay call for CC(C)(C)OC(=O)c1ccc(O)cc1 please.
y

Identify the outcome logged in this assay for the compound shown: O=C1CC(c2ccc(Cl)cc2)CC(=O)N1
n

Hey, what did the test say about CCOC(=O)/C=C/c1ccccc1 ?
y

// outcome(item) with item = CC1(C)S[C@@H]2[C@H](N=CN3CCCCCC3)C(=O)N2[C@H]1C(=O)O
n

Per the assay record, what outcome was assigned to COc1ccc2nc(SCc3ncc(C)c(OC)c3C)[nH]c2c1 ?
y

Entry CCOc1cc([N+](=O)[O-])c(OCC)cc1N1CCOCC1 : call = ?
n

In this assay, the call recorded for COCCc1ccc(OCC2CO2)cc1 (centres undefined) was what?
n

###

- Target or system: Cytochrome P450 2D6 (Homo sapiens) (UniProt P10635)
- Sequence (P10635 whole entry, looked up): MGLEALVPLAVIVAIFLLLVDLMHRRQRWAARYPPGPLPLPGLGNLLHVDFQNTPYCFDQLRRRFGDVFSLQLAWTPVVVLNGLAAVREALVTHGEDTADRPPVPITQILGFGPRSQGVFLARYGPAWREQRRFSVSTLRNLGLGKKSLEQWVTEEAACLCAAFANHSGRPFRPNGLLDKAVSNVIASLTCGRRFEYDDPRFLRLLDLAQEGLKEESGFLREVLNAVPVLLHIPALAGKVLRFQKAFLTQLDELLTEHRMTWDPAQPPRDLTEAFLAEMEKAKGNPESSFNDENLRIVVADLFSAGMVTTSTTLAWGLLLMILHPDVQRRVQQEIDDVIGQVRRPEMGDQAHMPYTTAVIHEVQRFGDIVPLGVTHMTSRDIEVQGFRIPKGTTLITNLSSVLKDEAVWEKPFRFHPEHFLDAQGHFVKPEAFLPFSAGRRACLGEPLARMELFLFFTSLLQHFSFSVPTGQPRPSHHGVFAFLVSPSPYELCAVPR
- Protocol description: Cytochrome P450 Family 2 Subfamily D Member 6 (CYP2D6) small molecule antagonists: luciferase reporter qHTS assay (AID 1671196); note: nearly all actives have a fitted effect of over 50% in size
- Run parameters: P450-Glo CYP2D6 enzyme assay, luciferin luminescence, 1 h; series mostly up to 115 µM
Records with an inconclusive call do not appear. Calls of active or inactive are those of the source. The call rests on the fitted dose curve; in most records, active means well fitted inhibition curve with a large enough effect in the repeat runs; inconclusive means weak or mixed curves; inactive means no such curve, though single readings can be large or run the other way.
Answer with one of the outcomes 1 (active), -1 (inactive)

Called result for Cc1nc2n(c(=O)c1CCN1CCC(c3noc4cc(F)ccc34)CC1)CCC[C@H]2O
1

Outcome logged for CCOc1cc(NC(C)=O)ccc1C(=O)OC in this assay:
-1

How was CCCCCCCCOS(=O)(=O)O classified in this test?
-1

# outcome recorded in this test, key = CCCN1C[C@H](CSC)C[C@@H]2c3cccc4[nH]cc(c34)C[C@H]21
1

// param item: CC(C)C(=O)OCc1cccc(OC(=O)[C@@H]2N3C(=O)[C@@H](NC(=O)Cc4ccccc4)[C@H]3SC2(C)C)c1 ; yields the recorded call
-1

For N[C@@H](CCC(=O)Nc1ccc([N+](=O)[O-])cc1)C(=O)O , which call appears in the assay record?
-1

###

- Protocol description: qHTS assay for small molecule disruptors of the mitochondrial membrane potential (AID 720635)
- Run parameters: HepG2 mitochondrial membrane potential, Mito-MPS dye ratio; series mostly up to 83.2 µM
Records with an inconclusive call do not appear. Calls of active or inactive are those of the source. The call rests on the fitted dose curve; in most records, active means well fitted inhibition curve with a large enough effect in the signal ratio in the repeat runs; inconclusive means weak or mixed curves, or effect the other way; inactive means flat fitted curve, though single readings scatter; the % refers to the signal ratio.
Hi there, use one of these labels in your reply, thanks! t for active, f for inactive

Query: recorded result category for N#Cc1ccc(C(=O)O)cc1 in this test
f

Per the records of this test, what outcome belongs to COc1ccc(C2CNC(=O)C2)cc1OC1CCCC1 (stereo not given) ?
f

What outcome does the record of this test show for CC(C)(C)c1n[nH]c(=S)n(N)c1=O ?
f

Fill in: this test's call for NCCN1CCOCC1 is ___
f

Recorded test outcome, item CC(CC=O)CCCC(C)(C)O (stereo not given)
f

Outcome logged for CC(C)NCC(O)COc1cccc2[nH]ccc12 (stereo not given) in this assay:
f

Entry COC(=O)[C@@H]1[C@H]2C[C@H]3c4[nH]c5ccccc5c4CCN3C[C@@H]2CC[C@@H]1O : call = ?
f

Please state the recorded outcome for this compound: ClCCCl
f

Test call, this compound: CC(=O)c1sc(C)nc1C
f

Which outcome was entered for the compound O=P(O)(O)OP(=O)(O)O in this test?
f

What did this assay record as the result for O=C(c1ccc(O)cc1)c1ccc(O)c(O)c1O ?
t

Recorded test outcome, item C=C(C)C(=O)OCCNC(C)(C)C
f

Please indicate how the test categorized Cc1cccc(C)c1NC(=O)c1ccccc1C(=O)O .
f

# outcome recorded in this test, key = CC(C)(C)OC(=O)c1ccc(O)cc1
t

Check the results log: what was the call for Cc1ccc2c(c1)OCC(=O)CO2 ?
f
